Measure: logP

> print(dat)
                                    molecule  value.observed
 1  CCC(=O)C(CCN(C)C)(c1ccccc1)c1ccc(OC)cc1 (stereo not drawn)            4.28
 2  CCC(=O)C(CCN(C)C)(c1ccccc1)c1ccc(Br)cc1 (stereo not drawn)            5.23
 3  CCC(=O)C(CCN(C)C)(c1ccccc1)c1ccc(Cl)cc1 (stereo not drawn)             4.9
 4  CCC(=O)C(CCN(C)C)(c1ccccc1)C1CCCC1 (stereo not drawn)            4.53
 5  CCC(=O)C(CCN(C)C)(c1ccc(F)cc1)c1ccc(F)cc1            4.84
 6  CCC(=O)C(CCN(C)C)(c1ccccc1)C1CCCCC1 (stereo not drawn)            5.13
 7  CCC(=O)C(CCN(C)C)(c1ccccc1)c1ccc(SC)cc1 (stereo not drawn)            4.96
 8  CCC(=O)C(CCN(C)C)(c1ccccc1)c1ccc(F)cc1 (stereo not drawn)            4.19
 9       CCC(=O)C(CCN(C)C)(c1ccccc1)c1ccccc1            4.15
10  CCC(=O)C(CCN(C)C)(c1ccccc1)c1ccc(O)cc1 (stereo not drawn)            3.45
11  CCC(=O)C(CCN(C)C)(c1ccccc1)C1CCCCCC1 (stereo not drawn)            5.91
12  CCC(=O)C(CCN(C)C)(c1ccccc1)c1cccc(F)c1 (stereo not drawn)            4.17
13  CCC(=O)C(CCN(C)C)(c1ccccc1)c1ccc(C)cc1 (stereo not drawn)            4.93
